Give measured viscosity for each item. Keep answers brief.
# measurementNotes: xn = mol fraction of the nth substance listed
# cond: 318.15 K; 100 kPa; x1 = 0.333
Give the number first and the unit second.

Completed entries (count: 4):
INSERT INTO assay_data (compound, reportedendpoint, measuredresult) VALUES
  ('CCCCCCC[N+](CCCCCCC)(CCCCCCC)CCCCCCC.[Br-] + CCCCCCCCCC(=O)O', 'viscosity', '205 mPa·s'),
  ('C[N+](C)(C)CCCl.[Cl-] + OCC(O)CO', 'viscosity', '161 mPa·s'),
  ('CCCCC[N+](CCCCC)(CCCCC)CCCCC.[Br-] + CCCCCCCCCC(=O)O', 'viscosity', '178 mPa·s'),
  ('CCCC[N+](CCCC)(CCCC)CCCC.[Cl-] + OCC(O)CO', 'viscosity', '57.8 mPa·s');

Recorded viscosity for CC[N+](CC)(CC)CC.[Cl-] + OCC(O)CO , please? 94.1 mPa·s

Every entry's value here was drawn from a compilation of properties of binary mixtures.
